- Test system: L1210 leukemia
- assay: Antitumor activity in BDF1 mice inoculated with L1210 leukemia cells (Table 6)
- Type: in vivo
- particulars: 0.15 mg./kg./day i.p., once daily for 10 days
- Source text: As an example, BDF1 mice were inoculated intraperitoneally with 1×10^6 cells/mouse of L1210 leukemia cells.
endpointName: Antitumor Activity (T/C, prolongation rate of survival day) (%)

| compound | testTarget | valueReported |
| --- | --- | --- |
| COc1cccc2c1C(=O)c1c(O)c3c(c(O)c1C2=O)C[C@@](O)(C(=O)CO)C[C@@H]3O[C@H]1C[C@H](N)[C@H](OC2CCCCO2)[C@H](C)O1 (single isomer, unassigned; isomer b) [4'-O-PAb] | L1210 leukemia | 113 |
| COc1cccc2c1C(=O)c1c(O)c3c(c(O)c1C2=O)C[C@@](O)(C(C)=O)C[C@@H]3O[C@H]1C[C@H](N)[C@H](OC2CCCCO2)[C@H](C)O1 (single isomer, unassigned; isomer a) [4'-O-PDa] | L1210 leukemia | 90 |
| COc1cccc2c1C(=O)c1c(O)c3c(c(O)c1C2=O)C[C@@](O)(C(=O)CO)C[C@@H]3O[C@H]1C[C@H](N)[C@H](OC2CCCCO2)[C@H](C)O1 (single isomer, unassigned; isomer a) [4'-O-PAa] | L1210 leukemia | 127 |
| COc1cccc2c1C(=O)c1c(O)c3c(c(O)c1C2=O)C[C@@](O)(C(C)=O)C[C@@H]3O[C@H]1C[C@H](N)[C@H](OC2CCCCO2)[C@H](C)O1 (single isomer, unassigned; isomer b) [4'-O-PDb] | L1210 leukemia | 90 |
| COc1cccc2c1C(=O)c1c(O)c3c(c(O)c1C2=O)C[C@@](O)(C(=O)COC1CCCCO1)C[C@@H]3O[C@H]1C[C@H](N)[C@H](OC2CCCCO2)[C@H](C)O1 (single isomer, unassigned; isomer a) [4',14-di-O-PAa] | L1210 leukemia | 96 |
| COc1cccc2c1C(=O)c1c(O)c3c(c(O)c1C2=O)C[C@@](O)(C(=O)CO)C[C@@H]3O[C@H]1C[C@H](N)[C@H](O)[C@H](C)O1 [Adriamycin, adriamycin, reference compound] | L1210 leukemia | 128 |
| COc1cccc2c1C(=O)c1c(O)c3c(c(O)c1C2=O)C[C@@](O)(C(=O)COC1CCCCO1)C[C@@H]3O[C@H]1C[C@H](N)[C@H](O)[C@H](C)O1 (some centres unmarked) [Example 14-O-PA, 14-O-tetrahydropyranyl adriamycin] | L1210 leukemia | 103 |
| COc1cccc2c1C(=O)c1c(O)c3c(c(O)c1C2=O)C[C@@](O)(C(=O)COC1CCCCO1)C[C@@H]3O[C@H]1C[C@H](N)[C@H](OC2CCCCO2)[C@H](C)O1 (single isomer, unassigned; isomer b) [4',14-di-O-PAb] | L1210 leukemia | 115 |

---

Measured Antitumor Activity (T/C, prolongation rate of survival day) values are reported for all entries that follow.
- Tested on: L1210 cells
- assay: animal or person
- Assay type: in vivo, CDF1 mice
- particulars: 5 mg/kg/day i.p., once daily for 10 days
- Experimental: D. Representative compounds of general formula I" were tested against experimental animal tumors as follows: […] CDF1 mice were administered intraperitoneally (i.p.) with 1×10^5 cells/mouse of L1210 cells. After 24 hours had elapsed since inoculation, the mice were administered the test compounds intraperitoneally once daily for 10 consecutive days and observed for a 45 day period. […]
endpointName: Antitumor Activity (T/C, prolongation rate of survival day) (%)

| compound | unitSpec | valueReported |
| --- | --- | --- |
| COc1cccc2c1C(=O)c1c(O)c3c(c(O)c1C2=O)C[C@@](O)(C(=O)CO)C[C@@H]3O[C@H]1C[C@H](N)[C@H](OC2CCCO2)[C@H](C)O1 (single isomer, unassigned) [Example 5-a, 4'-O-tetrahydrofuranyl adriamycin a] | % | 212 |
| CCOC(C)O[C@@H]1[C@H](C)O[C@@H](O[C@H]2C[C@](O)(C(C)=O)Cc3c(O)c4c(c(O)c32)C(=O)c2c(OC)cccc2C4=O)C[C@@H]1N (single isomer, unassigned) [Example 16-a, 4'-O-(1-ethyloxyethyl) daunomycin a] | % | 217 |
| COc1cccc2c1C(=O)c1c(O)c3c(c(O)c1C2=O)C[C@@](O)(C(=O)CO)C[C@@H]3O[C@H]1C[C@H](N)[C@H](OC(C)OC2CCCCC2)[C@H](C)O1 (single isomer, unassigned) [Example 11-b, 4'-O-(1-cyclohexyloxyethyl) adriamycin b] | % | 145 |
| COc1cccc2c1C(=O)c1c(O)c3c(c(O)c1C2=O)C[C@@](O)(C(C)=O)C[C@@H]3O[C@H]1C[C@H](N)[C@H](OC(C)OCC(C)C)[C@H](C)O1 (single isomer, unassigned) [Example 17-b, 4'-O-(1-isobutyloxyethyl) daunomycin b] | % | 188 |
| CCCCOC(C)O[C@@H]1[C@H](C)O[C@@H](O[C@H]2C[C@](O)(C(C)=O)Cc3c(O)c4c(c(O)c32)C(=O)c2c(OC)cccc2C4=O)C[C@@H]1N (single isomer, unassigned) [Example 18-b, 4'-O-(1-butyloxyethyl) daunomycin b] | % | 188 |
| CCCCOC(C)O[C@@H]1[C@H](C)O[C@@H](O[C@H]2C[C@](O)(C(C)=O)Cc3c(O)c4c(c(O)c32)C(=O)c2c(OC)cccc2C4=O)C[C@@H]1N (single isomer, unassigned) [Example 18-a, 4'-O-(1-butyloxyethyl) daunomycin a] | % | 144 |
| CCCCOC(C)O[C@@H]1[C@H](C)O[C@@H](O[C@H]2C[C@](O)(C(=O)CO)Cc3c(O)c4c(c(O)c32)C(=O)c2c(OC)cccc2C4=O)C[C@@H]1N (single isomer, unassigned) [Example 8-b, 4'-O-(1-butyloxyethyl) adriamycin b] | % | 288 |
| CCOC(C)O[C@@H]1[C@H](C)O[C@@H](O[C@H]2C[C@](O)(C(=O)CO)Cc3c(O)c4c(c(O)c32)C(=O)c2c(OC)cccc2C4=O)C[C@@H]1N (single isomer, unassigned) [Example 7-a, 4'-O-(1-ethyloxyethyl) adriamycin a] | % | 108 |
| CCCCOC(C)O[C@@H]1[C@H](C)O[C@@H](O[C@H]2C[C@](O)(C(=O)CO)Cc3c(O)c4c(c(O)c32)C(=O)c2c(OC)cccc2C4=O)C[C@@H]1N (single isomer, unassigned) [Example 8-a, 4'-O-(1-butyloxyethyl) adriamycin a] | % | 163 |
| COc1cccc2c1C(=O)c1c(O)c3c(c(O)c1C2=O)C[C@@](O)(C(=O)CO)C[C@@H]3O[C@H]1C[C@H](N)[C@H](OC(C)OC2CCCCC2)[C@H](C)O1 (single isomer, unassigned) [Example 11-a, 4'-O-(1-cyclohexyloxyethyl) adriamycin a] | % | 184 |
| COc1cccc2c1C(=O)c1c(O)c3c(c(O)c1C2=O)C[C@@](O)(C(=O)CO)C[C@@H]3O[C@H]1C[C@H](N)[C@H](OC2CCCO2)[C@H](C)O1 (single isomer, unassigned) [Example 5-b, 4'-O-tetrahydrofuranyl adriamycin b] | % | 256 |
| COc1cccc2c1C(=O)c1c(O)c3c(c(O)c1C2=O)C[C@@](O)(C(=O)CO)C[C@@H]3O[C@H]1C[C@H](N)[C@H](OC(C)OCCCCCC(C)C)[C@H](C)O1 (single isomer, unassigned) | % | 118 |
| COc1cccc2c1C(=O)c1c(O)c3c(c(O)c1C2=O)C[C@@](O)(C(=O)CO)C[C@@H]3O[C@H]1C[C@H](N)[C@H](OC(C)OCC(C)C)[C@H](C)O1 (single isomer, unassigned) [Example 9-b, 4'-O-(1-isobutyloxyethyl) adriamycin b] | % | 303 |
| COc1cccc2c1C(=O)c1c(O)c3c(c(O)c1C2=O)C[C@@](O)(C(=O)COC(C)=O)C[C@@H]3O[C@H]1C[C@H](N)[C@H](OC2CCCCO2)[C@H](C)O1 (single isomer, unassigned) | % | 241 |
